biological target: CHK1 (Homo sapiens (Human)); assay: CHK1 inhibitory activity test (IMAP TR-FRET); assay type: biochemical; conditions: read-out: CHK1 inhibition % at 0.1 nM
Sequence (O14757 whole entry): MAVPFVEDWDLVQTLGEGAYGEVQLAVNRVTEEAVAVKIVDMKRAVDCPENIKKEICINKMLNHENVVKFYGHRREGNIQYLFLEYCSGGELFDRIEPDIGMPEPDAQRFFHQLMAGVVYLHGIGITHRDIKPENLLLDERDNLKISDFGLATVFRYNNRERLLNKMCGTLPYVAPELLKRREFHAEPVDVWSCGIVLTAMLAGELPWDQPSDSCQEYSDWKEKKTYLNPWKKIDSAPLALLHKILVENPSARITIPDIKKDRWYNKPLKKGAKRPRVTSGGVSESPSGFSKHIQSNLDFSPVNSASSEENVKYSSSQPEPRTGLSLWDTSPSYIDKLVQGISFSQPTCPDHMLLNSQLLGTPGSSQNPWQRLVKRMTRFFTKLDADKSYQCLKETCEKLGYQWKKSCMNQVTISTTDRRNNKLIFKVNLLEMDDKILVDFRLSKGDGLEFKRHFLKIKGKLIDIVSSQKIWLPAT
# inhibition at 0.0001 µM per entry

Compound String	Tested System	Qualifier Symbol	inhibition at 0.0001 µM, %
COc1cncc(O[C@@H]2CCC[C@H](N)C2)c1-c1cc(Nc2cnc(C#N)cn2)n[nH]1	CHK1 (Homo sapiens (Human))	=	20
COc1cncc(OCC2(F)CNC2)c1-c1cc(Nc2cnc(C#N)cn2)n[nH]1	CHK1 (Homo sapiens (Human))	=	15
COc1ccnc(OCCCN)c1-c1cc(Nc2cnc(C(F)(F)F)cn2)n[nH]1	CHK1 (Homo sapiens (Human))	<	5
COc1nccc(OCC2(CO)CNC2)c1-c1cc(Nc2cnc(C#N)cn2)n[nH]1	CHK1 (Homo sapiens (Human))	=	51
CNCCCOc1cncc(OC)c1-c1cc(Nc2cnc(C#N)cn2)n[nH]1	CHK1 (Homo sapiens (Human))	<	5
COc1cncc(OC[C@H](F)CN)c1-c1cc(Nc2cnc(C#N)cn2)n[nH]1	CHK1 (Homo sapiens (Human))	=	28
COc1cncc(OC[C@@]2(F)CCNC2)c1-c1cc(Nc2cnc(C#N)cn2)n[nH]1	CHK1 (Homo sapiens (Human))	=	22
N#Cc1cnc(Nc2cc(-c3c(OCF)cncc3OCCCN)[nH]n2)cn1	CHK1 (Homo sapiens (Human))	=	23
COc1cncc(OCC2(C(F)F)CNC2)c1-c1cc(Nc2cnc(C#N)cn2)n[nH]1	CHK1 (Homo sapiens (Human))	=	42
